- target-or-system: HLA-A*0301 (human)
- measurement-protocol: competition with 125I-labelled standard peptide for purified HLA, gel filtration
Label key: true means relative binding ratio (IC50 of standard peptide / IC50 of test peptide) under 0.009; false means relative binding ratio (IC50 of standard peptide / IC50 of test peptide) of 0.009 or more.

Example cases with answers are listed next.
• EVFEFAFK (modifications not checked) [HPV18 E6 peptide EVFEFAFK (position 43, 8 amino acids)] = true
• CMCCKCEARIK (modifications not checked) [HPV18 E7 peptide … (position 63, 11 amino acids)] = true
• PLCPEEKQR (modifications not checked) [HPV31 E6 peptide … (position 109, 9 amino acids; Seq. Id. No. 10308)] = true
• SIPHAACHK (modifications not checked) [HPV18 E6 peptide … (position 59, 9 amino acids)] = false
• LLIRCLRCQK (modifications not checked) [HPV18 E6 peptide … (position 101, 10 amino acids)] = false

Please check: relative binding ratio (IC50 of standard peptide / IC50 of test peptide) for CIDFYSRIR (modifications not checked) [HPV18 E6 peptide … (position 68, 9 amino acids)] , strictly under 0.009 or not? true
